- System: castrate Sprague-Dawley rats
- assayMethodText: Hershberger test, subcutaneous administration for seven days (ventral prostate weight)
- Assay type: in vivo
- studyConditions: ventral prostate weight assay following subcutaneous administration; alcohol of G = 1.0 (assigned); value is for the free alcohol of the listed ester
Provide the reported Androgenic Potency of Corresponding Alcohol of each item.
Lab note: write the figure by itself, no unit.

Input: Look up Androgenic Potency of Corresponding Alcohol for this compound: CCCC[C@H]1CC[C@H](C(=O)O[C@H]2CC=C3[C@@H]4[C@H](C)CC5=CC(=O)CC[C@]5(C)[C@H]4CC[C@@]32C)CC1
Output: 61.1

Input: Input CCCC[C@H]1CC[C@H](C(=O)O[C@H]2CC[C@H]3[C@H]4[C@H](CC[C@]23C)[C@H]2CCC(=O)C[C@@H]2C[C@H]4C)CC1
Output: 1.2

Input: Input CCCC[C@H]1CC[C@H](C(=O)O[C@H]2CC[C@H]3[C@H]4[C@H]([C@@H](C)C[C@]23C)[C@H]2CCC(=O)C=C2C[C@H]4C)CC1 (relative stereo) [CDB-4386A]
Output: 19.3
